Here the recorded IC50 is given for each entry.
- TGT: IDH1 (R132H) mutant (Homo sapiens, UniProt O75874, R132H)
- Construct: His6 with PreScission site (N, cleaved yes)
- Sequence (O75874 whole entry R132H): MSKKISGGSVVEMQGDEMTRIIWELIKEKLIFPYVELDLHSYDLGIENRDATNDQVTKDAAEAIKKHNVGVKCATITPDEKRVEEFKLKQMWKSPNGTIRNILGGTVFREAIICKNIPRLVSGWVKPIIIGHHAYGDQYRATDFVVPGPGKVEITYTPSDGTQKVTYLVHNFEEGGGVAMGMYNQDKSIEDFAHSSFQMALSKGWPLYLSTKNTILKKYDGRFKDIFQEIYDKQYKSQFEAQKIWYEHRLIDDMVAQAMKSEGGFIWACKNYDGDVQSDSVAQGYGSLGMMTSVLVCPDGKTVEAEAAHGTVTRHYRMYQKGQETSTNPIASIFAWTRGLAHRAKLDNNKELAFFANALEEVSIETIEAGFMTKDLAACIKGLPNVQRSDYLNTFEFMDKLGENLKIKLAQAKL
- PROCEDURE SUMMARY: Fluorescence biochemical assay (NADPH oxidation)
- CONDITION LABEL: mIDH R132H 10 nM, 10 μM NADPH, 100 μM α-KG; range where run multiple times

compound="C[C@H](Nc1nccc(N2C(=O)OC[C@]2(C)C2CC2)n1)c1ccc(CN2CCC(N(C)C)CC2)cc1F [Example 33]" property_name=IC50 result="109 to 115 nM"

Ask | // lookup IC50 for C[C@H](Nc1nccc(N2C(=O)OC[C@@H]2C2CC2)n1)c1cnc(-c2ccc(C(F)F)cc2)s1 [Example 16]
Reply | 29.2 nM

Ask | // lookup IC50 for CC(Nc1nccc(N2C(=O)OC[C@]2(C)C2CC2)n1)c1nc(-c2ccc(Cl)c(OC(F)(F)F)c2)no1 (single isomer, unassigned) [Example 64]
Reply | 10.3 to 42.4 nM

Ask | // lookup IC50 for C[C@H](Nc1nccc(N2C(=O)OC[C@]2(C)C2CC2)n1)c1ccc(CN2CCC(N)CC2)c(F)c1 [Example 41]
Reply | 194 to 473 nM

Ask | // lookup IC50 for CC(Nc1nccc(N2C(=O)OC[C@@]2(C)C2CC2)n1)c1nc(-c2ccc(Cl)c(OC(F)(F)F)c2)no1 (single isomer, unassigned) [Example 66]
Reply | 34.3 to 72.5 nM
